System: RXRa DBDmut IVT, anti-RXR (DBD mutation: RXRa K156A/R161A, NR concentration 90 nM)
Assay: PBM binding z-score (relative to random genomic background probes); higher = stronger binding; sequences stand for … in GC…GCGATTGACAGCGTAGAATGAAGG
metric: PBM binding z-score
Lab note: jot the number down without any unit.

Per the records, this sequence ( ATATGTAGATTATCGGGTCATTCAGTTTGCGCAT ) has PBM binding z-score equal to 1.21

Lab note: measured PBM binding z-score of CATACAGGGTCAGATAGGCCAGAGTAGGGACGGC was 1.83

// PBM binding z-score value for CCGACTGGGGCAGAATGGTTACCATACCATCCGG : -0.908

The measured PBM binding z-score associated with ACTAGCAGGCCAAGTTTGGGTAACTCAAACAAAG reads -0.417

// TCATATAGGAAAATGCTAGGTGAAAGTCCGATCT : PBM binding z-score value = 1.41

Reported PBM binding z-score for ATCGAAAGGTCGAGCTGAGTATAGAGAAAGGGAA was 0.849

Lab book: PBM binding z-score of ATCTCTAGGTAGAGTTCAGTGAAAGATCGATAGA noted as 2.18

Entry TCATATAGTTAATACAGGTGAAAGTCGGCATCTA — recorded PBM binding z-score = 2.12

***
Looking up TAGCCTAGGTCATGCGAGCCAGTATAGTGTCGGC , I found its PBM binding z-score recorded as 0.876

The value of PBM binding z-score measured for the sequence GCTAGCAGGCCAGTTGGGTCACTCAATGACGGGC turned out to be -1.01

In plain terms, CAAACTAGGTCAAAGGTCAAAGGCGAGCCAACCA has a documented PBM binding z-score of 3.02

The sequence listed as ATCTCTAGGTAAAAGTTCAGAGAATCCCGAGGAT shows PBM binding z-score equal to 0.853

###

Tested on: RARg:RXRa (NR concentration 270 nM, RXRa partner concentration 90 nM)
Assay: PBM binding z-score (relative to random genomic background probes); higher = stronger binding; sequences stand for … in GC…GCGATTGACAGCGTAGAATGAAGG
metric: PBM binding z-score
The answer should be written as a number, with no unit following it.

Recorded result, ACTAGCAGGCGAAGGGTCACTCAAGATTAGTCCG , PBM binding z-score: 3.45

Input TAGCATAGGTCATTGGGCCAGTATAGTACGCATC . Output PBM binding z-score: 4.88

The recorded PBM binding z-score for entry GCTATTAGTTGAAAGGGCAACCAAATGATTCTCG equals 1.54

###

Tested on: PPARg:RXRa DBDmut IVT, anti-RXR (DBD mutation: RXRa K156A/R161A, NR concentration 270 nM, RXRa partner concentration 90 nM)
Test: PBM binding z-score (relative to random genomic background probes); higher = stronger binding; sequences stand for … in GC…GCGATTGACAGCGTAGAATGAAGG
metric: PBM binding z-score
Keep it simple and answer with nothing but the number.

Illustrative cases are given below, each with its answer.
So, CCTATTTGGTCAAGGTCACACACGCTATAGGTAC ? Its PBM binding z-score was 2.33

The reported value for TCTAGTTGGTCAAAGGTCATACACTCGAAATGCG in terms of PBM binding z-score is 3.45

Measured PBM binding z-score of TGAATGAGGTTATAAGATCGGGGAACGTTGCAAA : 1.5

Further cases:
Input GATACAGGATCAGCTAGAGGCCAGAGTATGGAAA . Output PBM binding z-score: -1.08

// recorded PBM binding z-score for CGAACAAGGTCAAGGACAGTGAATCTCCGCACGC : 4.85

CCTTTCGGGTCACGAGGTTATAGCACGACGAGCG yielded PBM binding z-score of 3.85

Measured values drawn from the supplement of paper PMC6555819 for this set.
